Target: Cathepsin L (Homo sapiens, UniProt P07711)
Construct: purchased Biovision K161-100
Sequence (P07711 114-333): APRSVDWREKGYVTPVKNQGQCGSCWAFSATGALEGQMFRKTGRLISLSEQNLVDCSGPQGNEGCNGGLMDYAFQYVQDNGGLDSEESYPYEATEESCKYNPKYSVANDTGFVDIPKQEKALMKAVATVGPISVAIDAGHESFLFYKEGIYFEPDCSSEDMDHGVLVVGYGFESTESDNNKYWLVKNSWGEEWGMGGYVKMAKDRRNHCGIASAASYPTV
Test: IC50 determination against Cathepsin L (Biovision kit K161-100)
Assay type: biochemical
Details: CTSL; Exp-1; read-out: IC50 (nM) Exp-1
# IC50 per record follows

The cases that follow already have their IC50 on record.
| compound | IC50 |
| --- | --- |
| CCOC(=O)[C@H]1O[C@@H]1C(=O)N[C@@H](CCSC)C(=O)NCCCCc1ccccc1 [Compound 40] | 4160 nM |
| CCCCCCNC(=O)[C@H](CCSC)NC(=O)[C@H]1O[C@@H]1C(=O)OCC [Compound 5] | 2270 nM |
| CCOC(=O)[C@H]1O[C@@H]1C(=O)N[C@@H](CCSC)C(=O)NCCCc1ccccc1 [Compound 8] | 3610 nM |
| CCOC(=O)[C@H]1O[C@@H]1C(=O)N[C@@H](CCSC)C(=O)NC(CC)CC [Compound 39] | 9250 nM |
| CCOC(=O)[C@H]1O[C@@H]1C(=O)N[C@@H](CC(C)C)C(=O)NCCC(C)C [zxy-37, E64d, reference compound] | 171 nM |
| CCOC(=O)[C@H]1O[C@@H]1C(=O)N[C@@H](CCSC)C(=O)N1CCC(c2ccccc2)CC1 [Compound 13] | 5880 nM |

// sample CCOC(=O)[C@H]1O[C@@H]1C(=O)N[C@@H](CCSC)C(=O)NCCc1cccc(F)c1 [Compound 34] , its IC50 was 338 nM
